The reported measurements were obtained from ChEMBL document CHEMBL2150885.

System: Platelet
procedure-summary: Antiplatelet activity against adenosine diphosphate-induced platelet aggregation in human blood at 6.25 x 10^-4 M measured for 6 mins by multiplate electrical impedance aggregometry
Format: functional, cell-based
recorded-endpoint: AUC (AU.min)
Numeric answer only, unit AU.min assumed.

Entry COc1ccc(-c2cc(=O)c3c(O)cc(O[C@@H]4O[C@H](CO[C@@H]5O[C@@H](C)[C@H](OS(=O)(=O)[O-])[C@@H](OS(=O)(=O)[O-])[C@H]5OS(=O)(=O)[O-])[C@@H](OS(=O)(=O)[O-])[C@H](OS(=O)(=O)[O-])[C@H]4OS(=O)(=O)[O-])cc3o2)cc1O.[Na+].[Na+].[Na+].[Na+].[Na+].[Na+] [HEXASULFATED DIOSMIN] : reported AUC = ?
200

Fill in the blank: the reported AUC of COc1ccc([C@@H]2CC(=O)c3c(O)cc(O[C@@H]4O[C@H](CO[C@@H]5O[C@@H](C)[C@H](OS(=O)(=O)[O-])[C@@H](OS(=O)(=O)[O-])[C@H]5OS(=O)(=O)[O-])[C@@H](OS(=O)(=O)[O-])[C@H](OS(=O)(=O)[O-])[C@H]4OS(=O)(=O)[O-])cc3O2)cc1O.[Na+].[Na+].[Na+].[Na+].[Na+].[Na+] [HEXASULFATED HESPERIDIN] is ____.
150

Item under review: O=c1ccc2cc(O[C@@H]3O[C@H](COS(=O)(=O)[O-])[C@@H](OS(=O)(=O)[O-])[C@H](OS(=O)(=O)[O-])[C@H]3OS(=O)(=O)[O-])c(OS(=O)(=O)[O-])cc2o1.[Na+].[Na+].[Na+].[Na+].[Na+] [ESCULIN PERSULFATE] . Reported AUC?
980

Given the entry O=C1O[C@H]([C@H](COS(=O)(=O)[O-])OS(=O)(=O)[O-])C(OS(=O)(=O)[O-])=C1OS(=O)(=O)[O-].[Na+].[Na+].[Na+].[Na+] [ASCORBIC ACID PERSULFATE] , report its measured AUC.
680
